The values you see were collected from PubChem BioAssay (NCATS).

- protocol notes: qHTS of pediatric cancer cell lines to identify multiple opportunities for drug repurposing: Primary screen for SK-N-SH cells (AID 1347098); further: nearly all actives have a fitted effect of over 65% in size
- recorded conditions: SK-N-SH viability, CellTiter-Glo luminescence, 48 h; series mostly up to 57 µM
Results filed as inconclusive are left out. Active and inactive are the calls of the source. The call rests on the fitted dose curve; in most records, active means well fitted cell-killing curve with a large enough effect; inconclusive means small, poorly fitted or top-dose-only effect; inactive means no such curve, though single readings can be large or run the other way. Numbered stars: 1 amine (or outer) side, 2 acyl side, 3 side chain; on linkers, the order of the positions; unused ones are H or OH. Bridge positions count the residues as written; N and C are the ends. Square brackets hold non-standard residues; d marks the D form. Peptide text beside a SMILES is read from it. I, II: the chains in the order shown. Actinocin(9to1) = Cc1c2oc3c(C)ccc(C(=O)[*:1])c3nc-2c(C(=O)[*:2])c(N)c1=O; NMeV = CN[C@H](C(=O)O)C(C)C; Sar = CNCC(=O)O
Form entry, call: pick from active, inactive

Kindly provide the recorded test outcome for the following molecule: `NC(=O)CC[C@@H]1NC(=O)[C@H](Cc2ccccc2)NC(=O)[C@H](Cc2ccc(O)cc2)NC(=O)CCSSC[C@@H](C(=O)N2CCC[C@H]2C(=O)N[C@@H](CCCN=C(N)N)C(=O)NCC(N)=O)NC(=O)[C@H](CC(N)=O)NC1=O`
inactive

// query: `CNC(=O)CN(CCN(CCN(CC(=O)[O-])CC(=O)NC)CC(=O)[O-])CC(=O)[O-].O.[Gd+3]`
inactive

// query: `C[C@H]1C[C@H]2[C@@H]3CCC4=CC(=O)C=C[C@]4(C)[C@@]3(Cl)[C@@H](O)C[C@]2(C)[C@@]1(O)C(=O)CO`
inactive

// query: `O=C1OC(c2ccc(O)cc2)(c2ccc(O)cc2)c2ccccc21`
inactive

// query: Cc1c2oc3c(C)ccc(C(=O)N[C@@H]4C(=O)N[C@H](C(C)C)C(=O)N5CCC[C@H]5C(=O)N(C)CC(=O)N(C)[C@@H](C(C)C)C(=O)O[C@@H]4C)c3nc-2c(C(=O)N[C@@H]2C(=O)N[C@H](C(C)C)C(=O)N3CCC[C@H]3C(=O)N(C)CC(=O)N(C)[C@@H](C(C)C)C(=O)O[C@@H]2C)c(N)c1=O (I: T[dV]P[Sar][NMeV] / II: T[dV]P[Sar][NMeV]; ester I:1-I:C, II:1-II:C; linker I:N-II:N via Actinocin(9to1))
active

// query: `CC(=O)Nc1c(I)cc(I)c(C(=O)O)c1I`
inactive

// query: `CCCCC(=O)O[C@]1(C(=O)CO)CC[C@H]2[C@@H]3CCC4=CC(=O)CC[C@]4(C)[C@H]3[C@@H](O)C[C@@]21C`
inactive

// query: `CC(C)(CO)[C@@H](O)C(=O)NCCCO`
inactive

// query: `CCCCCCCCCCCCCCNCCO`
inactive

// query: CCOc1ccc(NC(=O)CC(C)O)cc1 (centres undefined)
inactive

// query: `COc1ccc(CN2CCN(C(c3ccc(F)cc3)c3ccc(F)cc3)CC2)c(OC)c1OC`
active

// query: `CC(C)(C)NC(=O)[C@@H]1CN(Cc2cccnc2)CCN1C[C@@H](O)C[C@@H](Cc1ccccc1)C(=O)N[C@H]1c2ccccc2C[C@H]1O`
inactive

// query: `Cc1nc2n(c(=O)c1CCN1CCC(c3noc4cc(F)ccc34)CC1)CCC[C@H]2O`
inactive

// query: `NC[C@H]1O[C@H](O[C@H]2[C@H](O)[C@@H](O[C@H]3O[C@H](CO)[C@@H](O)[C@H](N)[C@H]3O)[C@H](N)C[C@@H]2N)[C@H](N)[C@@H](O)[C@@H]1O`
inactive
